assaySummary: Acute toxicity (LD), cat
conditionParameters: in vivo, po
propertyLabel: LD50 (mg/kg)

* Cc1ccc(=O)n(-c2ccccc2)c1 [pirfenidone, 5-methyl-1-phenyl-2-(1H) pyridone] | 500
